B1: LINE1-full (parent)
chain: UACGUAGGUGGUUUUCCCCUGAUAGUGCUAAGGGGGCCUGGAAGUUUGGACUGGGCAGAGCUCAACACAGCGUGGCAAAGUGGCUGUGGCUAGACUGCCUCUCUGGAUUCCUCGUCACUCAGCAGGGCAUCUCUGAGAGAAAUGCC

Variants of: B1
assay overview: self-cleavage, relative activity (ratio to wild type); higher = more cleavage; in vitro, sequencing; the parent is a self-cleaving ribozyme
Answer no if self-cleavage is under 0.3, and yes if it is 0.3 or more.

UACGUAGGUGGUUUUCCCCUGAUAGUGCUAAGGGGGCCUGGAAGUUUGGACUGGGCAGAGCCCAACACAGCGUGGCAAAGUGGCUGUGGCUAGACUGCCUCUCUGGAUUCCUCGUCACUCAGCAGGGCAUCUCUGAGAGAAAUGUC :: no
UACGUAGGUGGUUUUCCCCUGAUAGUGCUAAGGGGGCCUGGAAGAUUGGACUGGGCAGAGCUCAACACAGCGUGGCAAAGUGGCUGUGGCUAGACUGCCUCUCUGGAUUCCUCGUCACUCAGCAGGGCAUCUCUGAGAGAAAUGCC :: yes
UACGUAGGUGGUUUUCCCCUGAUAGUGCUAAGGGGGCCUGGAAGUUUGGACUGGGCAGAGCUCAACACAGCGAGGCAAAGUGGCUGUGGCUAGACUGCCUCUCUGGAUUCCUCGUCACUCAGCAGGACAUCUCUGAGAGAAAUGCC :: yes
UACGUAGGUGGUUUUCCCCUGAUAGUGCUAAGGGGGCCUGGAAGUUUGGACUGGGCAGAGCUCAACACAGCGUGGCAAAGUGGCCGUGGCUAGAUUGCCUCUCUGGAUUCCUCGUCACUCAGCAGGGCAUCUCUGAGAGAAAUGCC :: no

Ask: Could you tell me if the measured self-cleavage of UACGUAGGUGGUUUUCCCCUGAUAGUGCUAAGGGGGCCUGGAAGUUUGGACUGGGCAGAGCUCAACACAGCGUGGCAAAGUGGCUGUGGCUAGACUGCCUCUCUGGAUUCCUCGUCACUCAGCAGGGCAUCUCUGAGGGAAAAGCC reaches 0.3 or more?
Reply: yes

Ask: Quick check: does UACGUAGGUGGUUUUCCCCUGAUAGUGCUAAGGGGGCCUGGAAGUUUGGACUGGGCAGGGCUCAACACAGCGUGGCAAAGCGGCUGUGGCUAGACUGCCUCUCUGGAUUCCUCGUCACUCAGCAGGGCAUCUCUGAGAGAAAUGCC have self-cleavage greater than or equal to 0.3?
Reply: no

Ask: hey, is self-cleavage for this one >= 0.3? UACGUAGGUGGUUUUCCUCUGAUAGUGCUAAGGGGGCCUGGAAGUUUGGACUGGGCAGAGCUCAACACAGCGUGGCAAAGUGGCUGUGGCUAGACUGCCUCUCUGGACUCCUCGUCACUCAGCAGGGCAUCUCUGAGAGAAAUGCC
Reply: no

Ask: Quick check: does UACGUAGGUGGUUUUCCCCUGAUAGUGCUAUGGGGGCCUGGAAGCUUGGACUGGGCAGAGCUCAACACAGCGUGGCAAAGUGGCUGUGGCUAGACUGCCUCUCUGGAUUCCUCGUCACUCAGCAGGGCAUCUCUGAGAGAAAUGCC have self-cleavage greater than or equal to 0.3?
Reply: yes

Ask: // inclusive: self-cleavage at least 0.3? input: UACGUAGGUGGGUUUCCCCUGAUAGUGCUAACGGGGCCUGGAAGUUUGGACUGGGCAGAGCUCAACACAGCGUGGCAAAGUGGCUGUGGCUAGACUGCCUCUCUGGAUUCCUCGUCACUCAGCAGGGCAUCUCUGAGAGAAAUGCC
Reply: yes

Ask: Dear colleague, could you confirm whether UACGUAGGUGGCUUUCCCCUGAUAGUGCUAAGGGGGCCUGGAAGUUUGGACUGGGCAGAGCUCAACACAGCGUGGCAAAGUGGCUGUGGCUAGACUGCCUCUCUGGAUUCCUCGUUACUCAGCAGGGCAUCUCUGAGAGAAAUGCC has self-cleavage at or above 0.3?
Reply: yes

Ask: Identify whether the reported self-cleavage of the following variant is 0.3 or greater: UACGUAGGUGGUUUUCCCCUGAUAGUGCUAAGGGGGCCUGGAAGUUUGGACUGGGCAGAGCUCAACACAGCGUGGCAAAGUGGCUGUGGCUAGACUGCCUCUCUGGAUUCCUCGUCACUCAGCAGGGCACCUCUGAGAGGAAUGCC
Reply: yes

Ask: Is reported self-cleavage greater than or equal to 0.3 here: UACGUAGGUGGUUUUCCCCUGAUAGUGCUAAGUGGGCCUGGAAGUUUGGACUGGGCAGAGCUCUACACAGCGUGGCAAAGUGGCUGUGGCUAGACUGCCUCUCUGGAUUCCUCGUCACUCAGCAGGGCAUCUCUGAGAGAAAUGCC
Reply: yes

Cited source: the RNAGym collection of RNA variant scans (doi:10.7554/elife.90254)
